// data source = ChEMBL document CHEMBL2331511

# measurement.notes: Solubility of the compound in 9:1 ratio of water:ethanol by HPLC analysis
# Format: physicochemical
# condition.context: 9:1 water:ethanol
quantity: solubility (µg/mL)
Respond with the bare value in µg/mL.

Ask: Note solubility for the compound shown: N#C/C(=C\C=C\c1ccccc1)C(=O)NCc1ccccc1
Reply: 200

---

# measured.target: Induced myeloid leukemia cell differentiation protein Mcl-1 (Homo sapiens, UniProt Q07820, R263A)
# Sequence (Q07820 whole entry R263A): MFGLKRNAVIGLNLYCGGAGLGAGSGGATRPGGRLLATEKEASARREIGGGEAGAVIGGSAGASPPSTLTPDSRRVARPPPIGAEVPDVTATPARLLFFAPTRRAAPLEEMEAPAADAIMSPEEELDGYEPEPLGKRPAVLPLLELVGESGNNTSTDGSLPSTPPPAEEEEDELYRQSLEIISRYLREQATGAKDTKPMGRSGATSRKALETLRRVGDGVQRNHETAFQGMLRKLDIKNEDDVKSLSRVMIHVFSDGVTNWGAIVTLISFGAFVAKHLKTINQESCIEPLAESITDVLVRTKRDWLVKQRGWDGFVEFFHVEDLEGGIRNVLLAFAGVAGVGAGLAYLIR
# measurement.notes: Binding affinity to his-tagged Mcl-1 R263A mutant (unknown origin) expressed in Escherichia coli BL21 (DE3) cells by ITC analysis
Examples of molecules with documented Kd follow.
Respond with the bare value in µM.

Ask: Note Kd for the molecule shown: N#C/C(=C\C=C\c1ccccc1)C(=O)NCc1ccccc1
Reply: 6.72

Ask: Note Kd for the molecule shown: N#CCC(=O)NCc1ccccc1
Reply: 90.8

Ask: Note Kd for the molecule shown: N#CC(C#N)=c1c(=O)c2cccc3cccc1c32
Reply: 51.4

For the next question, use this molecule.
Ask: Note Kd for the molecule shown: N#C/C(=C\C=C\c1ccccc1)C(N)=O
Reply: 46.2

---

# measured.target: Induced myeloid leukemia cell differentiation protein Mcl-1 (Homo sapiens, UniProt Q07820)
# Sequence (Q07820 whole entry): as the sequence (Q07820 whole entry R263A) above, with A263R counted along it
# measurement.notes: Binding affinity to his-tagged Mcl-1 (unknown origin) expressed in Escherichia coli BL21 (DE3) cells by ITC analysis
# condition.context: read-out: pKd (converted)
quantity: Kd (µM)
Respond with the bare value in µM.

Examples with their reported Kd follow.
Ask: Note Kd for the molecule shown: N#CC(C#N)=c1c(=O)c2cccc3cccc1c32
Reply: 52.5

Ask: Note Kd for the molecule shown: O=C1C(=O)c2cccc3cccc1c23
Reply: 324

For the next question, use this molecule.
Ask: Note Kd for the molecule shown: Cc1cc2c(C(C)C)c(O)c(O)c(C=O)c2c(O)c1-c1c(C)cc2c(C(C)C)c(O)c(O)c(C=O)c2c1O
Reply: 2.63

---

Examples of molecules with documented Kd follow.
# measured.target: Induced myeloid leukemia cell differentiation protein Mcl-1 (Homo sapiens)
# measurement.notes: Binding affinity to his-tagged Mcl-1 (unknown origin) expressed in Escherichia coli BL21 (DE3) cells by ITC analysis
# condition.context: read-out: Kd

Examples with their reported Kd follow.
Ask: Write Kd of N#CC(C#N)=c1c(=O)c2cccc3cccc1c32 ; system used: Induced myeloid leukemia cell differentiation protein Mcl-1 (Homo sapiens)
Reply: 52.3 µM

Ask: Write Kd of CCC(C)(C)c1ccc(Oc2ccc3c(=C(C#N)C#N)c(=O)c4cccc2c43)cc1 ; system used: Induced myeloid leukemia cell differentiation protein Mcl-1 (Homo sapiens)
Reply: 1.45 µM

Ask: Write Kd of C1CSCCN1 [THIOMORPHOLINE] ; system used: Induced myeloid leukemia cell differentiation protein Mcl-1 (Homo sapiens)
Reply: > 1000 µM

Next:
Ask: Write Kd of Cc1cc2c(C(C)C)c(O)c(O)c(C=O)c2c(O)c1-c1c(C)cc2c(C(C)C)c(O)c(O)c(C=O)c2c1O [GOSSYPOL] ; system used: Induced myeloid leukemia cell differentiation protein Mcl-1 (Homo sapiens)
Reply: 2.65 µM

Ask: Write Kd of N#CCC(N)=O [CYANOACETAMIDE] ; system used: Induced myeloid leukemia cell differentiation protein Mcl-1 (Homo sapiens)
Reply: 13.5 µM
